These measurements were taken from ChEMBL document CHEMBL1151320.

Form field: IC50 (one value per entry).
EXPERIMENTAL_DETAILS: Inhibition of dog kidney Sodium/potassium-transporting ATPase by ELISA
Set-up: species or system Canis lupus familiaris
Numbers only here, please. The scale is nM.

Observe how each entry below is paired with its result.
{"SMILES_DATA": "C[C@]12C[C@@H](O)[C@H]3[C@@H](CC[C@]4(O)C[C@@H](OC(=O)CCCCC/C=C\\CCCCCCO)CC[C@]34CO)[C@@]1(O)CC[C@@H]2c1ccc(=O)oc1", "IC50 [nM]": 100}
{"SMILES_DATA": "C[C@]12C[C@@H](O)[C@H]3[C@@H](CC[C@]4(O)C[C@@H](OC(=O)CCCCCCCCCCCCCO)CC[C@]34CO)[C@@]1(O)CC[C@@H]2c1ccc(=O)oc1", "IC50 [nM]": 100}
{"SMILES_DATA": "C[C@]12C[C@@H](O)[C@H]3[C@@H](CC[C@]4(O)C[C@@H](OC(=O)CCCCCCCCCCCO)CC[C@]34CO)[C@@]1(O)CC[C@@H]2c1ccc(=O)oc1", "IC50 [nM]": 120}

From here, focus on the item given below.
What value of IC50 has been recorded for this entry: C[C@]12C[C@@H](O)[C@H]3[C@@H](CC[C@]4(O)C[C@@H](O)CC[C@]34CO)[C@@]1(O)CC[C@@H]2c1ccc(=O)oc1
120
